TARGET DESC: UniProt:P29476
METHOD NOTES: nNOS enzyme assay (hemoglobin capture assay)
Assay type: biochemical
RUN PARAMETERS: initial velocity, read-out: IC50 of NOS, nNOS
ASSAY READOUT: IC50 (µM)

In the examples that follow, each entry is paired with its recorded IC50.
molecule="N=C(Nc1ccc2nc(NC3CCN(Cc4ccccc4)CC3)sc2c1)c1cccs1 [Example 36d]" target_desc=UniProt:P29476 test_value=1.6
molecule="N=C(Nc1ccc2nc(NCCc3ccc(Br)cc3)sc2c1)c1cccs1 [Example 36b]" target_desc=UniProt:P29476 test_value=1.46

A = NC(=S)Nc1ccc2sc(N)nc2c1
B = N=C(Nc1ccc2nc(NCCN3CCCC3)sc2c1)c1cccs1
# return whichever of A and B has the smaller IC50 Lab log: write the label of the selected item as the result.
B
(B: 11.9 µM, A: 57.8 µM)

###

pIC50: −log10 of the molar value. Structures can show the parent of a compound that is named as a salt.
Quick record of pIC50 values for UniProt P29477.
ASSAY READOUT: pIC50

molecule=N=C(Nc1ccc2nc(NCCN3CCCC3)sc2c1)c1cccs1 assay_readout=pIC50 test_value=3.90

I = N=C(Nc1ccc2nc(NCCc3ccc(Br)cc3)sc2c1)c1cccs1 [Example 36b]
II = CSC(=N)Nc1ccc2nc(N)sc2c1
III = N=C(Nc1ccc2nc(NC3CCN(Cc4ccccc4)CC3)sc2c1)c1cccs1 [Example 36d]
Please list the entries, largest pIC50 first. Provide the ranking by listing each label in its place in the requested order.
I, III, II
(I: 4.04, III: 3.79, II: 3.49)

I = NC(=S)Nc1ccc2sc(N)nc2c1
II = N=C(Nc1ccc2sc(N)nc2c1)c1cccs1 [Example 20, hydrobromide]
# return whichever of I and II has the smaller pIC50 Lab log: write the label of the selected item as the result.
I
(I: 3.91, II: 4.14)

###

Quick record of pIC50 values for eNOS (UniProt P29473).
pIC50: −log10 of the molar value. Counter-ions that a name gives are not always drawn.
ASSAY READOUT: pIC50

compound="N=C(Nc1ccc2sc(N)nc2c1)c1cccs1 [Example 20, hydrobromide]" test_value=3.77
compound="CSC(=N)Nc1ccc2nc(N)sc2c1 [Example 4]" test_value=4.08
compound="NC(=S)Nc1ccc2sc(N)nc2c1 [Example 18, (2-Amino-benzothiazol-5-yl)-thiourea]" test_value=3.84

P = N=C(Nc1ccc2nc(NCCc3ccc(Br)cc3)sc2c1)c1cccs1 [Example 36b]
Q = N=C(Nc1ccc2nc(NC3CCN(Cc4ccccc4)CC3)sc2c1)c1cccs1 [Example 36d]
For the two items P and Q , which reports the higher pIC50 value? Lab log: write the label of the selected item as the result.
P
